target: T1, Cyno-his (cynomolgus); assay: Biacore
T1 construct: extracellular domain; soluble analyte of the Biacore runs; also called cSCRx91-his; cBMPR1B-CHis

binder	Kd
SC91.149 (antibody, V domains shown) VH: QVQLLQPGAELVKPGSSVKVSCKASGYTFTNYWMQWVKQRPGQGLEWIGEIDPSDTYTLYNQKFKGKATLTVDTSSSTAYMQLSSLTSEDSAVYYCARFGYYVDYWGQGTTLTVSS VL: DVVMTQTPLSLPVSLGDQASISCRSSQSLVHSTGNTYFHWYLQKPGQSPELLIYKVSNRFSGVPDRFRGSGSGTDFTLKISRVEAEDLGVYFCSQSTHVPFTFGSGTKLEIK	2 nM
SC91.160 (antibody, V domains shown) VH: QIQLVQSGPELKKPGETVKISCKASGYTFTTYGMNWVKQAPGKGLKWMGWINTYSGVPSSADDFKGRFAFSLETSASTAYLLINNLKNEDTATYFCARSELRNWYFDVWGTGTTVTVSS VL: SFVMTQTPKFLLVSAGDRVTITCKASQNMGHDVAWYQQKPGQSPKLLIYSASNRYTGVPDRFTGSGYGTDFTFTISTVQAEDLAVYFCQQDYSSPFTFGSGTKLEMK	38.8 nM
SC91.129 (antibody, V domains shown, copies: 2 + 2) VH: QVQLQQPGAELVKPGASVKLSCKASGYTFTNYWMQWVKQRPGQGLEWIGEIDPSDRYTLYNQKFKDKATLTVDTSSSTAYMQLSSLTSEDSAVYYCARFGYYVDYWGQGTTLTVSS VL: DAVMTQSPLSLPVSLGDQASISCRSSQSLVHSTGNTYLHWYLQKPGQSPKLLIYKVSNRFSGVPDRFSGSGSGTDFTLKISRVEAEDLGVYFCSQTTHVPFTFGSGTKLEIK	1.62 nM
SC91.187 (antibody, V domains shown) VH: QVQLQQPGPEFVKPGASVKLSCKASGYTFTSYWVQWVKQRPGQGLEWIGEIDPSDNYTLYNQNFKGKATLTVDTSSSTAYMQLSSLTSEDSAVYYCARFGFYVDYWGQGTTLTVSS VL: DVVMTQTPLSLPVSLGEQASISCRSSQSLVHSTGNTYLHWYLQKPGQSPKLLIYKVSNRFSGVPDRFSGSGSGTDFTLKISRVEAEDLGVYFCSQSTHVPFTFGSGTKLEIK	5.58 nM
SC91.172 (antibody, V domains shown) VH: QVQLQQPGADLVKPGTSVKLSCKASGYTFTSYWMQWVKQRPGQGLEWIGEIDPSDTYTMYNQKFKGKATLTVDTSSSTAYMQLSSLTSEDSAVYYCARFGYYVDYWGQGTTLTVSS VL: DVVMTQTPLSLPVSLGDQASISCRSSQSLVHSTGNTYLHWYLQKAGQSPKLLIYKVSNRFSGVPDRFSGSGSGTDFTLKISRVEAEDLGVYFCSQSTHVPFTFGSGTKLEIK	4.47 nM
